- Test system: Rattus norvegicus
- METHOD: Antinociceptive activity in Wistar albino rat assessed as latency in reaction time required for thermal stimulus-induced tail flicking at 30 mg/kg, po after 60 mins by analgesiometric analysis (RVb=3.16 +/- 0.16 seconds)
- Type: functional
PARAMETER: Activity (s)
Enter your answer as a number in s; do not include the unit.

q: Please look at this compound and report its Activity: O=C1C2ON=C(c3cn(-c4ccccc4)nc3-c3ccc(Br)cc3)C2C(=O)N1c1ccccc1 (stereo unspecified)
a: 7

q: Given the compound "Clc1ccc(-c2nn(-c3ccccc3)cc2-c2cc(-c3ccccc3)on2)cc1" , write its reported Activity.
a: 6.83

q: Please list Activity recorded for the compound CCOc1ccc(-c2nn(-c3ccccc3)cc2C2=NOC3C(=O)N(c4ccccc4)C(=O)C23)cc1 (stereo unspecified)
a: 6.83

q: Query Activity for O=C1C2ON=C(c3cn(-c4ccccc4)nc3-c3ccccc3)C2C(=O)N1c1ccccc1 (stereo unspecified)
a: 6.83

q: Name the recorded Activity of the item CN1C(=O)C2ON=C(c3cn(-c4ccccc4)nc3-c3ccc(Br)cc3)C2C1=O (stereo unspecified) in your answer.
a: 7.16

q: Note Activity for the compound shown: "CCCCc1cc(-c2cn(-c3ccccc3)nc2-c2ccc(Cl)cc2)no1"
a: 6.83
